target: MAP2K1 (IPI00219604) (Homo sapiens, UniProt Q02750); construct: endogenous in cells; assay: binding to VI16742 beads (HeLa lysate, SILAC MS); details: immobilized VI16742
Sequence (Q02750 whole entry): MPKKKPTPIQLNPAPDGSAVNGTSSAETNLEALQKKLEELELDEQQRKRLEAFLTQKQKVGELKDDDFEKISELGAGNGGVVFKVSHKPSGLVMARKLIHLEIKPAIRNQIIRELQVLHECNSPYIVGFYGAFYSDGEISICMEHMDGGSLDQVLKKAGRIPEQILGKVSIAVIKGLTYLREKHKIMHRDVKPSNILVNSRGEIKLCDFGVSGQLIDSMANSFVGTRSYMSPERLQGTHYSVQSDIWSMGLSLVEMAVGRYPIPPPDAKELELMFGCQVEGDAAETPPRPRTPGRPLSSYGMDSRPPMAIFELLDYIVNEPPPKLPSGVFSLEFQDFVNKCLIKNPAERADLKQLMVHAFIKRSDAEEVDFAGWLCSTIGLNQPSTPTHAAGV
parameter measured: Ki (µM)
Return type: number; implicit unit µM.

stdin: Specify measured Ki for `CC(C)n1c(=O)ccc2cnc(Nc3ccc(OCCN)cc3)nc21` .
stdout: 180

###

biological target: CRK7 (CRKRS, IPI00868781) (Homo sapiens, UniProt Q9NYV4); construct: endogenous in cells; assay: binding to VI16742 beads (HeLa lysate, SILAC MS); details: immobilized VI16742
Sequence (Q9NYV4 whole entry): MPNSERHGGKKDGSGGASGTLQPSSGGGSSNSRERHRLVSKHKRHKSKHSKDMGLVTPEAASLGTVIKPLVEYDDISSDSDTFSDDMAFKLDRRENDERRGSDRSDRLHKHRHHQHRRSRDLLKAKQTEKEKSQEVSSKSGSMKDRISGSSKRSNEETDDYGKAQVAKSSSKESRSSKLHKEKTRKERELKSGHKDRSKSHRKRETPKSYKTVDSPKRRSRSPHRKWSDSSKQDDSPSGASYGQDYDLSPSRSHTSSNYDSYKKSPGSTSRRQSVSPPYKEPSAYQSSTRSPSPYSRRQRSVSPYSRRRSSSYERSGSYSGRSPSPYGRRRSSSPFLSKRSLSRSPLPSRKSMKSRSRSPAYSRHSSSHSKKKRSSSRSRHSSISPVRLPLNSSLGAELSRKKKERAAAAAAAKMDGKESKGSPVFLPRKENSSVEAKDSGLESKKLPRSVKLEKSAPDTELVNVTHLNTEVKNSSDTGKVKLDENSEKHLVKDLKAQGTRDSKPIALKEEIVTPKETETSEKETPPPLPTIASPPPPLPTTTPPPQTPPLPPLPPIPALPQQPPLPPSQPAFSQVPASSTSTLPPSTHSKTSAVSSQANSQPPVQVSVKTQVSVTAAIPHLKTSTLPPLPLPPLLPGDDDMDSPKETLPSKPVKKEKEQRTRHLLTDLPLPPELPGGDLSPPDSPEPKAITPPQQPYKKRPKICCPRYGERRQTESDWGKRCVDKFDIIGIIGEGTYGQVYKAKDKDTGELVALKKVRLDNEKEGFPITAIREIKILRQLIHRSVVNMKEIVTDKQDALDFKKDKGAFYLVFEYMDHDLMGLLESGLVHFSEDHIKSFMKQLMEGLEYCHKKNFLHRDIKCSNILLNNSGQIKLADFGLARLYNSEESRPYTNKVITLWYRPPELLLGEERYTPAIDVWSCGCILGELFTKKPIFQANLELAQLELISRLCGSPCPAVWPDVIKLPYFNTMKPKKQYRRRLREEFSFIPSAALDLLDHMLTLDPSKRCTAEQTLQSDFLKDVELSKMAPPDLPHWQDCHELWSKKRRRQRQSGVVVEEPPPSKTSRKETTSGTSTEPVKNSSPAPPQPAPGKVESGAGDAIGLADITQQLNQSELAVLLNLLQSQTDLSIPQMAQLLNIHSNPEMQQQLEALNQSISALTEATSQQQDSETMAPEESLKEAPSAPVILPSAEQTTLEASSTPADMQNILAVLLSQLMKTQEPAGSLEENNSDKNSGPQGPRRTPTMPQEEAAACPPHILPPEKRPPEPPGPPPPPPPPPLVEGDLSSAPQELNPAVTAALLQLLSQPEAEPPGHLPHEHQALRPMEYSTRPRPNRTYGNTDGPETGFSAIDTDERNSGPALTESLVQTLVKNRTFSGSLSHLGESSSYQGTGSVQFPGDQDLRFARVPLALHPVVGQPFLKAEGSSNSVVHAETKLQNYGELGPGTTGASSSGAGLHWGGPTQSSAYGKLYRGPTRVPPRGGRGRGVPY
parameter measured: Ki (µM)
Answer with a number only, understood to be in µM.

stdin: Answer with reported Ki of `CC(C)n1c(=O)ccc2cnc(Nc3ccc(OCCN)cc3)nc21`
stdout: 90.7
